Values from paper PMC9482650

target: GRIP2_6, Q9C0E4; assay: holdup assay; set-up: key: below the threshold = too weak to quantify, mostly under pKd 3.1 to 4; conditions: plain residues with an end cap or a label only (N-terminal biotin on a linker: ttds)
Sequence (Q9C0E4 648-740): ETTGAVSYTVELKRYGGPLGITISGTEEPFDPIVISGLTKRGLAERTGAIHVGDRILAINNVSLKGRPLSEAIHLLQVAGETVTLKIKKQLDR
observed.property: pKd

Observe how each entry below is paired with its result.
binder: QRQARSETLV [HPV59-E6, Q81964]
pKd: below the threshold
//
binder: RPLPRKVSQL [DOCK4, Q8N1I0]
pKd: below the threshold
//
binder: RLQRRRETQV [HPV18-E6, P06463]
pKd: below the threshold
//
binder: RHTTSTETAV [HPV30-E6, P36809]
pKd: 3.77
//
binder: DKDPHSETAL [TMIGD1, Q6UXZ0]
pKd: below the threshold
//
binder: PRVKPQRSKV [PPP1R13L, Q8WUF5]
pKd: below the threshold
//
binder: SSLQSLETSV [ATP2B4, P23634]
pKd: below the threshold
//
binder: NDPAWDETNL [ARHGEF7, Q14155;Q14155-1]
pKd: below the threshold

Next binder, pKd to be filled in.
// lookup pKd for SKPTRRETEV [HPV35-E6, P27228]
below the threshold
